This collection of values is drawn from patent US20230374132A1.

Below, each of the binders is paired with its reported Kd value.
Target Desc: T1, human CD3E&G complex (Sino Biological Inc., CT041-H0305H) (human, UniProt P07766 23-126; P09693 23-116)
T1 construct: bought heterodimer; also called human CD3E&G antigen
T1 sequence (P07766 23-126, chain 1 of 2): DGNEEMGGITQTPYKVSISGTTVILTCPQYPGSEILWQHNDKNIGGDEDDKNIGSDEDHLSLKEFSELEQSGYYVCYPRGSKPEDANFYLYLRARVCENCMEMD
T1 sequence (P09693 23-116, chain 2 of 2): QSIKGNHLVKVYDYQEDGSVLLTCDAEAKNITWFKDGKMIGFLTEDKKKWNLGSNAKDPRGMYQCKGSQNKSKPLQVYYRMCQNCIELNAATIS
Assay Overview: BLI, antibody on sensor
Write the value in nM as a bare number.

hzsp34.102 (antibody, human IgG1, lambda, L234A L235A, V domains shown, CDR mutant of hzsp34.24; IgG1 L234A L235A, lambda) VH: EVQLVESGGGLVQPGGSLKLSCAASGFTFNTYAMNWVRQASGKGLEWVGRIRSKYNNYATYYADSVKDRFTISRDDSKSTLYLQMNSLKTEDTAVYYCARHGNFGQSYVSWFAYWGQGTTVTVSS VL: QAVVTQEPSLTVSPGGTVTLTCGSSTGAVTTSNYANWVQQKPGQAPRGLIGGTNKRAPGVPARFSGSLLGDKAALTLLGAQPEDEAEYYCALWYSNLWVFGQGTKLTVLG ... 8.52
hzsp34.85 (antibody, human IgG1, lambda, L234A L235A, V domains shown, CDR mutant of hzsp34.24; IgG1 L234A L235A, lambda) VH: EVQLVESGGGLVQPGGSLKLSCAASGFTFNTYAMNWVRQASGKGLEWVGRIRSKYNGYATYYADSVKDRFTISRDDSKSTLYLQMNSLKTEDTAVYYCARHGNFGQSYVSWFAYWGQGTTVTVSS VL: QAVVTQEPSLTVSPGGTVTLTCRSSTGAVTTSNYANWVQQKPGQAPRGLIGGTNKRAPGVPARFSGSLLGDKAALTLLGAQPEDEAEYYCALWYSNLWVFGQGTKLTVLG ... 8.08

Quick one: Kd of hzsp34.100 (antibody, human IgG1, lambda, L234A L235A, V domains shown, CDR mutant of hzsp34.24; IgG1 L234A L235A, lambda) VH: EVQLVESGGGLVQPGGSLKLSCAASGFTFNTYAMNWVRQASGKGLEWVGRIRSKYNNYATYYADSVKDRFTISRDDSKSTLYLQMNSLKTEDTAVYYCARHGNFGGRYVSWFAYWGQGTTVTVSS VL: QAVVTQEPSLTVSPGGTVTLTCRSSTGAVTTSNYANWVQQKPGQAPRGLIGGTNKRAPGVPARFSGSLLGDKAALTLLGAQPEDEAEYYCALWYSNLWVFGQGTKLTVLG ?
8.33
